- experimental_target: EGFR (human) (UniProt P00533)
- Sequence (P00533 whole entry, looked up): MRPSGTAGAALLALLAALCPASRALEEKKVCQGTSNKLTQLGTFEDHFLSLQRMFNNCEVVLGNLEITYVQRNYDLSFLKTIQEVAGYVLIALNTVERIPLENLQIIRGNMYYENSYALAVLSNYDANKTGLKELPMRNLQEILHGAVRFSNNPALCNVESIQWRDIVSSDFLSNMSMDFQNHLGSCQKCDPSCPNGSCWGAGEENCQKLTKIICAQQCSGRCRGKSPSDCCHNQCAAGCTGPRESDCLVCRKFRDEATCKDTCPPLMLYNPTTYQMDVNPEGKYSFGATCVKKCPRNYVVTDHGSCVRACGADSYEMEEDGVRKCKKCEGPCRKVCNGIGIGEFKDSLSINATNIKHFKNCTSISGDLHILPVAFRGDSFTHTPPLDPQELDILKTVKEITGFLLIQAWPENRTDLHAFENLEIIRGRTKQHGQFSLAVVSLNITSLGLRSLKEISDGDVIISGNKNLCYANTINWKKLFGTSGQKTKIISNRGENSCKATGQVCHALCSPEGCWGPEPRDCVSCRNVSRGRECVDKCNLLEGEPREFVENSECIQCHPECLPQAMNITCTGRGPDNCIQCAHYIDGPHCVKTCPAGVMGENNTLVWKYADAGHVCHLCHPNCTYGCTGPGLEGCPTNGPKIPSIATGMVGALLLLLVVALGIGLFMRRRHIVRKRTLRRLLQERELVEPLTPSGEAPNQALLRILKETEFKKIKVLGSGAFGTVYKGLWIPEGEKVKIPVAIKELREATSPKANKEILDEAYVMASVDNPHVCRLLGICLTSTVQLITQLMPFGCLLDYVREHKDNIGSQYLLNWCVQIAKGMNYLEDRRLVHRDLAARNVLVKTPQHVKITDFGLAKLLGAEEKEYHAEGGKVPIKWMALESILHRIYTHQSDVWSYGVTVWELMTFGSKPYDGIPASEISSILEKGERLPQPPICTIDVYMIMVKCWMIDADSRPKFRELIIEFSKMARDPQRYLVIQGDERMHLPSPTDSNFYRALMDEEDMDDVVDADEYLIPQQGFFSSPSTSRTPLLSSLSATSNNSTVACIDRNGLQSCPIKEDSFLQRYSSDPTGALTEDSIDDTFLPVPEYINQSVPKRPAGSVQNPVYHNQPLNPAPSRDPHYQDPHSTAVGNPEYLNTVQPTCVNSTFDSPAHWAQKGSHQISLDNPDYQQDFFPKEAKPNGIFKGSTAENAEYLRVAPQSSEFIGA
Recorded measurements of IC50, one per entry
Give just the numeric value; nM need not be written.

Recorded IC50, per entry:
O=C(CO)N1CCC[C@@H]1COc1cc(OCCO)cc2ncnc(Nc3ccc(F)c(Cl)c3)c12	128
COc1cc(OC[C@@H]2CCCN2C(=O)CN(C)C)c2c(Nc3ccc(F)c(Cl)c3)ncnc2c1	141

**Query** IC50 for COc1cc(OC[C@@H]2C[C@@H](O)CN2C(=O)CO)c2c(Nc3ccc(F)c(Cl)c3)ncnc2c1 ?
**Result** 156

**Query** What would you report for CCOCCOc1cc(OC[C@H]2CCCN2C(=O)CO)c2c(Nc3ccc(F)c(Cl)c3)ncnc2c1 ?
**Result** 99

**Query** What would you report for COc1cc(OC[C@H]2CCCN2C(=O)CO)c2c(Nc3ccc(F)c(Cl)c3)ncnc2c1 ?
**Result** 91

**Query** What would you report for COc1cc(OC[C@H]2CCCN2C(C)=O)c2c(Nc3ccc(F)c(Cl)c3)ncnc2c1 ?
**Result** 28
